test: Back of the eye drug exposure (PK) after topical instillation of compound MPP
Assay type: in vivo
assay-conditions: rabbit, choroid, topical or ocular, 50 μL of 0.5% MPP formulation; MPP 0.5%, 50 μL topical BID 5 days, Dutch-belted rabbits, 8 mm punch; read-out: AUC0-last Choroid

compound: COc1cc2c(Oc3ccc(NC(=O)Nc4cc(C)ccc4F)c(Cl)c3)ncnc2cc1OCCCN1CCC2(CC1)COC2 [Compound 12]
AUC(0-t) [µM·h]: 2.45
--
compound: COc1cc2c(Oc3ccc(NC(=O)Nc4cc(C)ccc4F)c(Cl)c3)ccnc2cc1OCCCN1CCC2(CC1)COC2 [Compound 25]
AUC(0-t) [µM·h]: 5.79
--
compound: COc1cc2c(Oc3ccc(NC(=O)Nc4cc(C)on4)c(Cl)c3)ncnc2cc1OCCCN1CCC2(CC1)COC2 [Compound 9]
AUC(0-t) [µM·h]: 5.4
